These data points were gathered from PubChem BioAssay (NCI).

Reported TGI values follow for various compounds
test system: HCC-2998 colon; assay: NCI tumour cell line growth inhibition, 48 h

O=C(CC1=Nc2nnc(CCCCCCCc3nnc4n3C(=O)C(CC(=O)c3ccc5ccccc5c3)=N4)n2C1=O)c1ccc2ccccc2c1    > 100 µM
Cc1c(C)c([N+](=O)[O-])c2c(c1N)C(=O)c1ccccc1C2=O    > 100 µM
COc1ccc(-c2ccc(C(=O)C=P(c3ccccc3)(c3ccccc3)c3ccccc3)cc2)cc1    15.2 µM
CC(C)C[C@@H](N)[C@@H](O)C(=O)N[C@H](C(=O)N[C@H](C(=O)N[C@@H](CC(=O)O)C(=O)O)C(C)C)C(C)C    > 20 µM
N/N=C(/Cc1ccccc1)NNO    > 100 µM
COc1c2ccoc2nc2c(OC)c(OCC(O)C(C)(C)O)ccc12 (centres undefined)    > 100 µM
Cc1cccc(C2NC(=O)c3ccccc3N2)c1 (centres undefined)    > 100 µM
C=CCC(O[Si](C)(C)C(C)(C)C)c1cc(O[Si](C)(C)C(C)(C)C)ccc1OC (centres undefined)    > 100 µM

Consider the additional compound presented here.
Notebook: CCOc1ccc(NC(=O)/C(CC(=O)c2c[n+](=O)c3ccccc3n2[O-])=N\OCCCc2ccccc2)cc1 , TGI read as > 100 µM
